Assign pIC50 to each entry below.
Molecular target: PDE4 (Homo sapiens, UniProt Q08499)
Sequence (Q08499 whole entry): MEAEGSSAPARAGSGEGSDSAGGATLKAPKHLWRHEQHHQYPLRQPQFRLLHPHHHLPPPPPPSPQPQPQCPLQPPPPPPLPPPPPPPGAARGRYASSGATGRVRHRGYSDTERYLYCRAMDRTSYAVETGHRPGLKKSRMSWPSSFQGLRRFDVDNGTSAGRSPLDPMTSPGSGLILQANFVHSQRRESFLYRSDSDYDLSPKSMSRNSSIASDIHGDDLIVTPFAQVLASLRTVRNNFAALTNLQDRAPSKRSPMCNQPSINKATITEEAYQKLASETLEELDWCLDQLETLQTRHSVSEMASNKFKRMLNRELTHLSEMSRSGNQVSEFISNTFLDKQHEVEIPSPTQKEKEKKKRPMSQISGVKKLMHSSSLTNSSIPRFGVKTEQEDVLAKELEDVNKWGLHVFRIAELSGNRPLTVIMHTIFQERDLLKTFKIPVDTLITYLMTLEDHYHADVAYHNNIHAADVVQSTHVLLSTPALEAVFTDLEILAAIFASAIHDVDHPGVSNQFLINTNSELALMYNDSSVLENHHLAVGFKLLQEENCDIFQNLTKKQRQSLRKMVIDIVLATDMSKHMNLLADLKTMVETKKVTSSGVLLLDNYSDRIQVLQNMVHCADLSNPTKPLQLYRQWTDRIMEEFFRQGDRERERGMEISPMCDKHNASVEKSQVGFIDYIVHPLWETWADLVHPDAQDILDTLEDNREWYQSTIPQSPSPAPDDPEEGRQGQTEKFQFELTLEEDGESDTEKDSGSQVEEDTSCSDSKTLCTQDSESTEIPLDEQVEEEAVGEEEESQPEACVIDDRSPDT
Experiment: In-vitro assay for PDE4 enzymes, real-time enzyme-coupled spectrophotometric assay (Table 9)
Assay type: biochemical
Details: human PDE4D; activity class, Table 9; read-out: hPDE4D
pIC50: −log10 of the molar value.

Ask: Form: Entry = COc1ccc(Cc2ccc(N3CCC3)nc2)cc1-c1cccc(Cl)c1 | System = PDE4 (Homo sapiens, UniProt Q08499) | pIC50 = ____
Result: > 5.30

Ask: COc1ccc(COc2ccc(N)cc2)c(F)c1-c1cccc(Cl)c1 ?
Result: > 5.30

Ask: Here is the next compound: COc1ccc(Cc2ccc(N3CCNC3=O)nc2)c(F)c1-c1cccc(Cl)c1
Result: > 5.30

Ask: Can you handle COc1ccc(Cn2cc(-c3ccncc3)cn2)c(F)c1-c1cccc(Cl)c1 next?
Result: > 5.30

Ask: Also need COc1ccc(Cc2ccc(F)cc2)nc1-c1cccc([N+](=O)[O-])c1 , thanks.
Result: > 5.30

Ask: Now consider COc1ccc(Cn2cncn2)cc1-c1ccc2[nH]ccc2c1 .
Result: 4.40 to 4.70

Ask: Now try COc1ccc(Cn2cnc3ccccc32)cc1-c1cccc([N+](=O)[O-])c1 .
Result: > 5.30

Ask: Lookup COc1ccc(COc2cccc(NC(C)=O)c2)c(F)c1-c1cccc(Cl)c1
Result: > 5.30

Ask: Same read-out for COc1ccc(Cn2cc(NC(N)=O)ccc2=O)cc1-c1cccc([N+](=O)[O-])c1 ?
Result: 4.70 to 5.30
